- subject-of-test: P-gp (Homo sapiens)
- Construct: was obtained by stepwise selection of CCRF‐CEM in vincristine‐containing medium; endogenous in cells; host or cells: CCRF VCR1000 (vincristine-selected subline of CCRF-CEM human T-lymphoblasts; gift of V. Gekeler)
- Sequence (P08183 whole entry): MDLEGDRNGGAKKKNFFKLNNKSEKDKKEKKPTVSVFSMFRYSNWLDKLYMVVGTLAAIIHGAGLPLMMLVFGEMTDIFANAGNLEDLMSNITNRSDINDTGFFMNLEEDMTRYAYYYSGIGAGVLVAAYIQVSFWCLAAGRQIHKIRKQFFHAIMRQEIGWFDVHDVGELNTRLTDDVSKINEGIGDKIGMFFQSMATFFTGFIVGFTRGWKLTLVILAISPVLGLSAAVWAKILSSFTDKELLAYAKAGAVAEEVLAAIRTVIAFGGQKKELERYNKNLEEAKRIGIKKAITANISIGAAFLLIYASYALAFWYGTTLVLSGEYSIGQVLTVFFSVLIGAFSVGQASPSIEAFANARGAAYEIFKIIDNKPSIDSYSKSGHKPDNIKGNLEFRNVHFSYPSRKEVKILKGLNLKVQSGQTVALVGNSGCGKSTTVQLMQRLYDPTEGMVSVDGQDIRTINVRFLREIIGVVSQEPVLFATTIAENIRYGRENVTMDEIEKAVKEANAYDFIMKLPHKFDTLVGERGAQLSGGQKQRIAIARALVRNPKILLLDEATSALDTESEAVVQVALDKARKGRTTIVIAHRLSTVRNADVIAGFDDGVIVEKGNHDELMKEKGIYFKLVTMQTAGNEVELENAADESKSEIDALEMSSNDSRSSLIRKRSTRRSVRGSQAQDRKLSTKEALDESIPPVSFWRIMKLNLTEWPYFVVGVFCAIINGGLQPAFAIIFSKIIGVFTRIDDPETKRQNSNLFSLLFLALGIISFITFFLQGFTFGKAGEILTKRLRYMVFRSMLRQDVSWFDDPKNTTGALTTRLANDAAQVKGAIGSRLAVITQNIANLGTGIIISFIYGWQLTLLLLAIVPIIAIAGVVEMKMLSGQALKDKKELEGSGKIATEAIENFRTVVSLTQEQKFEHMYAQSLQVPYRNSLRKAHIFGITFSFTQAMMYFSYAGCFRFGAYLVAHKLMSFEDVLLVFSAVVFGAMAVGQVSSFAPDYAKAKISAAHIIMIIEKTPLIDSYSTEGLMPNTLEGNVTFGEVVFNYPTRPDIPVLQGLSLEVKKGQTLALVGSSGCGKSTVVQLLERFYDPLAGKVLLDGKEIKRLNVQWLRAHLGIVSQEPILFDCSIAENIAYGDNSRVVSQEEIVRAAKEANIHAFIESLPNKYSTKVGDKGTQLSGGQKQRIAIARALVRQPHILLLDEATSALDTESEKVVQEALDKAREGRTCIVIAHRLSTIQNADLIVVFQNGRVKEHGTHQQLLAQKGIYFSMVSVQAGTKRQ
- test-method-notes: P-gp inhibition: steady-state daunorubicin accumulation in P-gp-overexpressing CCRF VCR1000 cells (flow cytometry)
- Assay type: cell-based
- assay-context: ratio IC50 BCRP / IC50 P-gp
metric: fold higher IC50 value for BCRP than for P-gp

O=C(CCc1ccccc1)c1ccccc1OCC(O)CN1CC(=O)N2CCCC2C1=O (stereo not shown) ... more than 2.6 fold
COc1ccc(C(=O)CCc2ccccc2)c(OCCNC(=O)C2CCCN2)c1 (stereo not shown) ... more than 2.6 fold
O=C(CCc1ccccc1)c1ccccc1OCCN1CC(=O)N2CCCC2C1=O (stereo not shown) ... 1.5 fold
